SYSTEM: HLA-B*48:01
TEST NAME: IEDB peptide-MHC binding, purified MHC/direct/fluorescence; filed as Kd, often an IC50 or EC50 that approximates it; bounds were set here for any values at or beyond the usual limits of such assays
CONDITION INFO: source organism: Brucella suis
pKd: −log10 of the molar value.

| SEQ | pKd |
| --- | --- |
| RRTKLPLTK | ≤ 4.70 |

----------
SYSTEM: HLA-A*11:01
TEST NAME: IEDB peptide-MHC binding, purified MHC/direct/fluorescence; filed as Kd, often an IC50 or EC50 that approximates it; bounds were set here for any values at or beyond the usual limits of such assays
CONDITION INFO: source organism: Corynebacterium glutamicum
pKd: −log10 of the molar value.

| SEQ | pKd |
| --- | --- |
| WPALSSIAA | ≤ 4.70 |
